experimental.details: Metabolic stability in human liver microsomal preparation
Assay type: in vitro ADME
measurement.conditions: pH 7.4; human liver microsomes, NADPH, 37° C., 0-45 min; read-out: Metabolic Stability t1/2
parameter: half-life at 1 μM (h)

(P) O=C(O)c1nn[nH]c1Oc1ccc(-c2ccc3ccccc3c2)cc1 [Example I-177]
(Q) O=C(O)c1nn[nH]c1Oc1cncc(-c2cccnc2)c1 [Example I-264]
Return label of the item with the larger half-life at 1 μM. Candidates: P , Q . Could you answer with the label of the item you picked?
Q
(Q: 173 h, P: 9.43 h)

(P) O=C(O)c1nn[nH]c1Oc1ccc(-c2ccccc2)cc1 [Example I-150]
(Q) O=C(O)c1nn[nH]c1Oc1ccc(C2CCCC2)cc1 [Example I-265]
// compare measured half-life at 1 μM between P and Q ; output the lower one API: response body contains the label of the selected item.
Q
(Q: 1.55 h, P: 8.78 h)

(a) O=C(O)c1nn[nH]c1Oc1ccc2ccccc2c1 [Example I-058]
(b) O=C(O)c1nn[nH]c1Sc1ccc(-c2ccccc2)cc1 [Example I-128]
(c) O=C(O)c1nn[nH]c1Oc1cccc(C2CCCCC2)c1 [Example I-268]
Sort the molecules on half-life at 1 μM; start with the lowest figure. Rank the items, then write their labels in that order.
c, b, a
(c: 0.344 h, b: 2.87 h, a: 13.8 h)

(P) O=C(O)c1nn[nH]c1Oc1cccc(-c2ccccc2)c1 [Example I-249]
(Q) O=C(O)c1nn[nH]c1Sc1ccc2ccccc2c1 [Example I-031]
Which of these two has the smaller recorded half-life at 1 μM: P or Q ? Answer format: the label of the selected item.
P
(P: 5.79 h, Q: 13.1 h)

====

experimental.details: Stability in human plasma
Type: in vitro ADME
measurement.conditions: read-out: Plasma Stability T1/2
parameter: half-life at 2 μM (h)

(1) CC(C)Cc1ccc(Oc2[nH]nnc2C(=O)O)cc1
(2) CC(C)=Cc1cccc(Oc2[nH]nnc2C(=O)O)c1
(3) O=C(O)c1nn[nH]c1Oc1cccc(-c2cccc(Cl)c2)c1
(4) N#Cc1cccc(-c2ccc(Oc3[nH]nnc3C(=O)O)cc2)c1
Rank descending by half-life at 2 μM. Reply: labels, ordered per the request.
4, 2, 3, 1

====

experimental.details: Solubility in aqueous solution (deionized, distilled water)
Assay type: physicochemical
measurement.conditions: kinetic from dmso stock, 1% DMSO, read-out: Aqueous Solubility H2O
parameter: solubility at 1 h (µM)

# count of solved cases: 3
O=C(O)c1nn[nH]c1Oc1ccc(-c2ccc3ccccc3c2)cc1 [Example I-177] | 45.7
COc1ccc(-c2ccc(Oc3[nH]nnc3C(=O)O)cc2)cc1OC [Example I-270] | 109
CS(=O)(=O)c1ccc(-c2ccc(Oc3[nH]nnc3C(=O)O)cc2)cc1 [Example I-167] | 112

(1) Cc1ccc(-c2cccc(Oc3[nH]nnc3C(=O)O)c2)cc1 [Example I-251]
(2) Cc1ccc(-c2ccc(Oc3[nH]nnc3C(=O)O)cc2)cc1 [Example I-151]
Between item 1 and item 2 , which reported solubility at 1 h is smaller? Response format: the label of the selected entry.
2

====

experimental.details: Protein binding (plasma equilibrium dialysis)
Assay type: in vitro ADME
measurement.conditions: 5 hours at 37° C.
parameter: recovery at 5 h, 1 μM (%)

O=C(O)c1nn[nH]c1Oc1cccc(C2CCCC2)c1 | 113
CC(C)=Cc1ccc(Oc2[nH]nnc2C(=O)O)cc1 | 109
CCC(CC)c1ccc(Oc2[nH]nnc2C(=O)O)cc1 | 101
O=C(O)c1nn[nH]c1Sc1ccc(-c2ccccc2)cc1 | 126
O=C(O)c1nn[nH]c1Oc1ccc(-c2ccc3ccccc3c2)cc1 | 99.3
CCCC(C)c1ccc(Oc2[nH]nnc2C(=O)O)cc1 (stereo not shown) | 99.9
COc1cc(-c2ccc(Oc3[nH]nnc3C(=O)O)cc2)ccc1F | 110
CC(C)Cc1ccc(Oc2[nH]nnc2C(=O)O)cc1 | 114
C#Cc1cccc(Oc2[nH]nnc2C(=O)O)c1 | 110
O=C(O)c1nn[nH]c1Oc1ccc(-c2ccc(Br)cc2)cc1 | 98.5

Origin of the recorded values: patent US11389456B2
